biological target: Frizzled-2 (Homo sapiens) (UniProt Q14332); test: Antagonist activity at Wnt3a-stimulaed frizzled-2 (unknown origin) expressed in human HEK293superTOP flash cells at 1 nM incubated for 24 hrs by luciferase reporter gene assay (reference value: 0%); type: functional, cell-based; conditions: HEK293, filed as antagonist
Sequence (Q14332 24-565 limits assumed): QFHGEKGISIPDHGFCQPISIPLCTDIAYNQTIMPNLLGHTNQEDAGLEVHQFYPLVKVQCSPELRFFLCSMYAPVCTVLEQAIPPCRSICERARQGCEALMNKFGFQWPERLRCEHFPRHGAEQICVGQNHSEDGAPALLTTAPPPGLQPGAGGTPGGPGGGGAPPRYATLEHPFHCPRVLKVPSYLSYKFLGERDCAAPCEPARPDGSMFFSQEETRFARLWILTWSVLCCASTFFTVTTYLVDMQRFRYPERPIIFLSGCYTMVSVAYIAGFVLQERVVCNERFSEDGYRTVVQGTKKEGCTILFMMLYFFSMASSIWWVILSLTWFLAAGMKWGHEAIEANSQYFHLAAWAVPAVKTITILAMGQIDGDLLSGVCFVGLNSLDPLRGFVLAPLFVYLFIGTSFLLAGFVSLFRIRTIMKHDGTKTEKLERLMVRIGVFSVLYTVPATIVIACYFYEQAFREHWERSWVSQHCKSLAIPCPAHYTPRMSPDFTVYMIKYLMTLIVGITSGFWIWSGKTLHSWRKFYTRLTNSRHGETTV
Where a SMILES comes first, the peptide text is derived from it.
Entries annotated with measured inhibition
Lab book: enter the figure in %, no units written.

Below, 3 molecules whose answers are already recorded.
[
  {
    "molecule": "CSCC[C@H](NC(=O)CNC(=O)[C@H](CCC(=O)O)NC(=O)[C@H](C)NC(=O)[C@@H](NC(=O)[C@H](CCCCN)NC(=O)[C@H](CC(N)=O)NC(=O)[C@H](CS)NC(C)=O)[C@@H](C)O)C(=O)N[C@@H](CC(=O)O)C(=O)NCC(=O)N[C@@H](CS)C(=O)N[C@@H](CCC(=O)O)C(=O)N[C@@H](CC(C)C)C(N)=O (Ac-CNKTAEGMDGCEL-NH2)",
    "testReadout": "inhibition",
    "measValue": 87.3
  },
  {
    "molecule": "CSCC[C@H](NC(=O)CNC(=O)[C@H](CCC(=O)O)NC(=O)[C@H](CO)NC(=O)[C@H](C)NC(=O)[C@H](CCCCN)NC(=O)[C@H](CC(N)=O)NC(=O)[C@H](CS)NC(C)=O)C(=O)N[C@@H](CC(=O)O)C(=O)NCC(=O)N[C@@H](CS)C(=O)N[C@@H](CCC(=O)O)C(=O)N[C@@H](CC(C)C)C(N)=O (Ac-CNKASEGMDGCEL-NH2)",
    "testReadout": "inhibition",
    "measValue": 59.4
  },
  {
    "molecule": "CSCC[C@H](NC(=O)CNC(=O)[C@H](CCC(=O)O)NC(=O)[C@H](CO)NC(=O)[C@@H](NC(=O)[C@H](CCCCN)NC(=O)[C@H](CC(N)=O)NC(=O)[C@H](CS)NC(C)=O)[C@@H](C)O)C(=O)N[C@@H](C)C(=O)NCC(=O)N[C@@H](CS)C(=O)N[C@@H](CCC(=O)O)C(=O)N[C@@H](CC(C)C)C(N)=O (Ac-CNKTSEGMAGCEL-NH2)",
    "testReadout": "inhibition",
    "measValue": 60.5
  }
]

Okay, next one:
*Q* Would you kindly share the measured inhibition for CSCC[C@H](NC(=O)CNC(=O)[C@H](CCC(=O)O)NC(=O)[C@H](CO)NC(=O)[C@@H](NC(=O)[C@H](CCCCN)NC(=O)[C@H](CC(N)=O)NC(=O)[C@H](CS)NC(C)=O)[C@@H](C)O)C(=O)N[C@@H](CC(=O)O)C(=O)NCC(=O)N[C@@H](CS)C(=O)N[C@@H](CCC(=O)O)C(=O)N[C@@H](CC(C)C)C(N)=O (Ac-CNKTSEGMDGCEL-NH2) ?
*A* 61.2

---

Listed molecules paired with reported inhibition
biological target: Frizzled-2 (Homo sapiens); test: Antagonist activity at Wnt3a-stimulaed frizzled-2 (unknown origin) expressed in human HEK293superTOP flash cells at 1 nM incubated for 24 hrs by luciferase reporter gene assay (reference value: 0%); format: functional, cell-based; settings: HEK293, filed as antagonist
Where a SMILES comes first, the peptide text is derived from it.
Please reply with the bare figure in % and do not write the unit itself.

[
  {
    "molecule": "CSCC[C@H](NC(=O)CNC(=O)[C@H](CCC(=O)O)NC(=O)[C@H](CO)NC(=O)[C@@H](NC(=O)[C@H](CCCCN)NC(=O)[C@H](C)NC(=O)[C@H](CS)NC(C)=O)[C@@H](C)O)C(=O)N[C@@H](CC(=O)O)C(=O)NCC(=O)N[C@@H](CS)C(=O)N[C@@H](CCC(=O)O)C(=O)N[C@@H](CC(C)C)C(N)=O (Ac-CAKTSEGMDGCEL-NH2)",
    "unitDescriptor": "%",
    "inhibition": 79.5
  },
  {
    "molecule": "CSCC[C@H](NC(=O)CNC(=O)[C@H](CCC(=O)O)NC(=O)[C@H](CO)NC(=O)[C@@H](NC(=O)[C@H](C)NC(=O)[C@H](CC(N)=O)NC(=O)[C@H](CS)NC(C)=O)[C@@H](C)O)C(=O)N[C@@H](CC(=O)O)C(=O)NCC(=O)N[C@@H](CS)C(=O)N[C@@H](CCC(=O)O)C(=O)N[C@@H](CC(C)C)C(N)=O (Ac-CNATSEGMDGCEL-NH2)",
    "unitDescriptor": "%",
    "inhibition": 84.9
  },
  {
    "molecule": "CSCC[C@H](NC(=O)CNC(=O)[C@H](CCC(=O)O)NC(=O)[C@H](CO)NC(=O)[C@@H](NC(=O)[C@H](CCCCN)NC(=O)[C@H](CC(N)=O)NC(=O)[C@H](CS)NC(C)=O)[C@@H](C)O)C(=O)N[C@@H](CC(=O)O)C(=O)NCC(=O)N[C@@H](CS)C(=O)N[C@@H](C)C(=O)N[C@@H](CC(C)C)C(N)=O (Ac-CNKTSEGMDGCAL-NH2)",
    "unitDescriptor": "%",
    "inhibition": 85.5
  },
  {
    "molecule": "CSCC[C@H](NC(=O)[C@H](C)NC(=O)[C@H](CCC(=O)O)NC(=O)[C@H](CO)NC(=O)[C@@H](NC(=O)[C@H](CCCCN)NC(=O)[C@H](CC(N)=O)NC(=O)[C@H](CS)NC(C)=O)[C@@H](C)O)C(=O)N[C@@H](CC(=O)O)C(=O)NCC(=O)N[C@@H](CS)C(=O)N[C@@H](CCC(=O)O)C(=O)N[C@@H](CC(C)C)C(N)=O (Ac-CNKTSEAMDGCEL-NH2)",
    "unitDescriptor": "%",
    "inhibition": 63.1
  }
]

*Q* Tell me reported inhibition for CSCC[C@H](NC(=O)CNC(=O)[C@H](CCC(=O)O)NC(=O)[C@H](CO)NC(=O)[C@@H](NC(=O)[C@H](CCCCN)NC(=O)[C@H](CC(N)=O)NC(=O)[C@H](CS)NC(C)=O)[C@@H](C)O)C(=O)N[C@@H](CC(=O)O)C(=O)NCC(=O)N[C@@H](CS)C(=O)N[C@@H](CCC(=O)O)C(=O)N[C@@H](C)C(N)=O (Ac-CNKTSEGMDGCEA-NH2) , tested with Frizzled-2 (Homo sapiens).
*A* 86.5

*Q* Reported inhibition for Frizzled-2 (Homo sapiens), given CSCC[C@H](NC(=O)CNC(=O)[C@H](CCC(=O)O)NC(=O)[C@H](CO)NC(=O)[C@@H](NC(=O)[C@H](CCCCN)NC(=O)[C@H](CC(N)=O)NC(=O)[C@H](CS)NC(C)=O)[C@@H](C)O)C(=O)N[C@@H](CC(=O)O)C(=O)NCC(=O)N[C@@H](CS)C(=O)N[C@@H](C)C(=O)N[C@@H](C)C(N)=O (Ac-CNKTSEGMDGCAA-NH2) ?
*A* 74.3

Just for reference, ChEMBL document CHEMBL4806963 is where these values come from.
